Values were extracted from PubChem BioAssay (NCI).

Test system: U251 CNS
Assay: NCI tumour cell line growth inhibition, 48 h
Exercise: for every item that follows, state its recorded TGI.

Query :: State the recorded TGI for this entry: NC1=NCC(CN2CCCCC2)O1 (centres undefined)
Result :: > 100 µM

Query :: Now try CN1C(c2ccccc2)CC(C)(O)CC1c1ccccc1 (centres undefined) .
Result :: > 100 µM

Query :: For `CS(=O)(=O)c1ccc2c(c1)C(=O)c1c-2n(CCCBr)c(=O)c2cc([N+](=O)[O-])ccc12` then?
Result :: > 100 µM

Query :: Try this compound too: COc1cccc(C2c3cc4c(cc3OC(NNC(N)=O)C2C)OCO4)c1O (centres undefined)
Result :: 34.3 µM
